molecular target: UniProtKB Q9NZJ5; assay: PERK cellular assay (TR-FRET, HEK293-EGFP-eIF2α cells, tunicamycin-induced ER stress); format: cell-based; settings: tunicamycin 2 hours, read-out: Cellular IC50 (μM) (EIF2a)
Sequence (Q9NZJ5 30-1116): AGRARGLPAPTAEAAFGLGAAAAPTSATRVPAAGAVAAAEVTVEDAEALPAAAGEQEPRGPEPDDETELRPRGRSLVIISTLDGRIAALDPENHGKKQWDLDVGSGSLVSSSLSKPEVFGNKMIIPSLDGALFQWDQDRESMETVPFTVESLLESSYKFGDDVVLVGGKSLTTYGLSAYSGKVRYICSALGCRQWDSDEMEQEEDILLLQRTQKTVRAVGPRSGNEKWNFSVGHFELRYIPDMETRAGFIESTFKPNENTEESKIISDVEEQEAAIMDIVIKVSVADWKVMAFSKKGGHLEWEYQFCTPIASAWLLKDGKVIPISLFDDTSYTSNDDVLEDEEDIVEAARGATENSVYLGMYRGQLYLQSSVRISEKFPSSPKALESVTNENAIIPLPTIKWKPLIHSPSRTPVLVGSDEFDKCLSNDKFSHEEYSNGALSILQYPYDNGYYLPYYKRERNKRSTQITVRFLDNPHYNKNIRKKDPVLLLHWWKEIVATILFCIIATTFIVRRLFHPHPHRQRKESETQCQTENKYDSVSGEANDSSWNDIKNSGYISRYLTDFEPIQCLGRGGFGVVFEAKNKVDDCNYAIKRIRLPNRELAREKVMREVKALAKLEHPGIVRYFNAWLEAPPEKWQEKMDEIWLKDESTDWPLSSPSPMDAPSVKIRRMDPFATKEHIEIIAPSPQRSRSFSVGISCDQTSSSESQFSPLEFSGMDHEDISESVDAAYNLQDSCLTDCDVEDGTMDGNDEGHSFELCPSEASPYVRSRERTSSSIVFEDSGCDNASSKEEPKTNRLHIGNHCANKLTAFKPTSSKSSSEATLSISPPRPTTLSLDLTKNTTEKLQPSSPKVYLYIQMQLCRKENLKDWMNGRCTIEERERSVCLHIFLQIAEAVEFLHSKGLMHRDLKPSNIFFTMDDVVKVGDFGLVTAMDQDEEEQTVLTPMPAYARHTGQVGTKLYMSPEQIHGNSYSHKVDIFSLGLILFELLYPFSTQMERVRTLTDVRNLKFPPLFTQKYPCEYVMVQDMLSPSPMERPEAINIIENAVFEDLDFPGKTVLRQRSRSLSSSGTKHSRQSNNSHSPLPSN

{"columns": ["compound", "IC50"],
 "data": [
  ["Cc1cc(NC(=O)C(O)c2cc(F)cc(F)c2)ccc1-c1cnc(N)c(C(=O)NCC(F)(F)F)c1 (single isomer, unassigned) [Example 18]", "0.026 to 0.05 µM"],
  ["Cc1cc(NC(=O)C(O)c2cc(F)cc(F)c2)ccc1-c1cnc(N)c(C(=O)NC(C)(C)C)c1 (single isomer, unassigned) [Example 16]", "0.101 to 0.25 µM"],
  ["Cc1cc(NC(=O)C(O)c2cccc(C(F)(F)F)c2)ncc1-c1cnc(N)c(C(=O)NC(C)C)c1 (stereo not shown) [Example 127]", "> 5 µM"],
  ["Nc1ncc(-c2ccc(NC(=O)C(O)c3cc(F)cc(F)c3)cc2Cl)cc1C(=O)NC1CC1 (stereo not shown) [Example 85]", "0.051 to 0.1 µM"],
  ["Cc1ccccc1C(O)C(=O)Nc1ccc(-c2cnc(N)c(C(=O)NC(C)C)c2)c(Cl)c1 (stereo not shown) [Example 91]", "0.251 to 0.5 µM"],
  ["CCc1cc(NC(=O)C(O)c2cc(F)cc(F)c2)ccc1-c1cnc(N)c(C(=O)NCC(F)(F)F)c1 (stereo not shown) [Example 100]", "0.001 to 0.025 µM"],
  ["CCc1cc(NC(=O)C(O)c2cc(F)cc(F)c2)ccc1-c1cnc(N)c(C(=O)NC2CC2)c1 (stereo not shown) [Example 103]", "0.101 to 0.25 µM"]
]}
